Tested on: NIH3T3
Assay: Cytotoxic Profiling of Annotated Libraries Using Quantitative High-Throughput Screening (AID 1296008); also: nearly all actives have a fitted effect of over 60% in size
Conditions: Five cell lines viability, CellTiter-Glo ATP luminescence, 48-72 h
Results filed as inconclusive are left out. Calls of active or inactive are those of the source. Calls follow the shape of the dose curve; as a rule, active = well fitted inhibition curve with a large enough effect; inconclusive = small, poorly fitted or top-dose-only effect; inactive = flat fitted curve, though single readings scatter.
QUANTITY MEASURED: outcome

COc1cc(C2c3cc(O)c(OC)cc3CC(CO)C2CO)ccc1O (centres undefined)	inactive
COc1cc(/C=C/C(=O)O[C@H]2[C@H](O)[C@@H](CO)O[C@@]2(CO)O[C@H]2O[C@H](COC(=O)c3ccc(O)cc3)[C@@H](O)[C@H](O)[C@H]2O)cc(OC)c1OC	inactive
CC(C)(OC1OC(CO)C(O)C(O)C1O)C1CCC(O)(CO)C2CC(O)C(C)(O)C2C1 (centres undefined)	inactive
CC(=O)c1c(C)cc(O)cc1O[C@@H]1O[C@H](CO)[C@@H](O)[C@H](O)[C@H]1O	inactive

====

Tested on: CP237
Test: qHTS profiling for inhibitors of Plasmodium falciparum proliferation (AID 504749); also: nearly all actives have a fitted effect of over 60% in size
Conditions: P. falciparum in erythrocytes, SYBR Green DNA, 72 h; series mostly up to 28.7 µM
Records with an inconclusive call do not appear. Active and inactive are the calls of the source. Calls come from the whole dose curve; as a rule, active = well fitted inhibition curve with a large enough effect; inconclusive = small, poorly fitted or top-dose-only effect; inactive = flat fitted curve, though single readings scatter. Peptide text beside a SMILES is read from it.
Permitted responses: y = active, n = inactive

Data request: How was "CCCCCCCCCCCCCC[n+]1ccc(C)cc1" classified in this test?
Data returned: y

Data request: Please let me know the test result on file for "C=CCSSSCC=C" .
Data returned: n

Data request: Recorded test call requested for "IC(I)I"
Data returned: n

Data request: For CC(NNC(=O)c1ccccc1)c1ccccc1 (configuration not stated) , what call appears in the results of this test?
Data returned: n

Data request: Please indicate how the test categorized CCCCCC(CC)COC(=O)CC(C(=O)OCC(CC)CCCC)S(=O)(=O)O (configuration not stated) .
Data returned: n

Data request: Dear colleague, could you share the recorded outcome for "CC1=C(/C=C/C(C)=C/C=C/C(C)=C/C=C/C=C(C)/C=C/C=C(C)/C=C/C2=C(C)CCCC2(C)C)C(C)(C)CCC1" when you have a moment?
Data returned: n

Data request: What outcome does the record of this test show for "CC(C)=O" ?
Data returned: n

Data request: Per the assay record, what outcome was assigned to "CCOC(=O)C1=C(C)NC(C)=C(C(=O)OCC)C1c1ccccc1C=CC(=O)OC(C)(C)C" ?
Data returned: y

Data request: Can you look up the reported call for CCCCCCC(O)C/C=C/CCCCCCCC(=O)O (configuration not stated) for me?
Data returned: n

Data request: Short answer needed: outcome of this test for CC(=O)N[C@@H](CC(=O)O)C(=O)N[C@@H](CCC(=O)O)C(=O)O (Ac-Asp-Glu-OH) ?
Data returned: n

Data request: What call does the record list for "CCCCCCCC(=O)O" ?
Data returned: n

Data request: // return assay outcome for "Cc1cn([C@H]2C[C@H](O)[C@@H](CO)O2)c(=O)[nH]c1=O"
Data returned: n

Data request: // outcome(item) with item = CC(O)CO (configuration not stated)
Data returned: n

Data request: Hi, sorry to bother you, what did the test record for "C[C@H]1C[C@H]2[C@@H]3CCC4=CC(=O)C=C[C@]4(C)[C@@]3(F)[C@@H](O)C[C@]2(C)[C@@]1(O)C(=O)CO" ?
Data returned: n

Data request: Could you check what this test reported for "COCC(=O)Nc1cc(Sc2ccccc2)ccc1N=C(NC(=O)OC)NC(=O)OC" ?
Data returned: n

Data request: Recorded call for "Cc1ccccc1" ?
Data returned: n

Data request: Call for entry "COc1ccc2c3c1O[C@H]1C[C@@H](O)C=C[C@@]31CCN(C)C2" :
Data returned: n

====

Assay: Cell Viability - LYMP1-003 - Assay at 24 hr (AID 963);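 also: plate controls were DMSO only for no effect and tetraoctylammonium bromide positive control for full effect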
Conditions: LYMP1-003 lymphoblastoid cell viability; series mostly up to 92.2 µM
The source made the active and inactive calls. Calls follow the shape of the dose curve; as a rule, active = well fitted cell-killing curve with a large enough effect; inconclusive = small, poorly fitted or top-dose-only effect; inactive = flat fitted curve, though single readings scatter.
QUANTITY MEASURED: outcome

CC1=C(/C=C/C(C)=C/C=C/C(C)=C/CO)C(C)(C)CCC1	inactive
Nc1ccn([C@H]2CS[C@@H](CO)O2)c(=O)n1	inactive
CCCCC/C=C\C/C=C\CCCCCCCC(=O)O	inactive
CCOc1ccc2c(c1)C(C)=CC(C)(C)N2	inactive
CC(O)CO (stereo unspecified)	inactive

Here is another molecule to look at.
Data request: Entry "CCOC(C)=O" : reported outcome = ?
Data returned: inactive

====

Experiment: Cell Viability - LYMP2-010 (AID 981);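 also: cells exposed to compound for 24 hours at 37 °C; nearly all actives have a fitted effect of over 55% in size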
Settings: LYMP2-010 lymphoblastoid cell viability, qHTS; series mostly up to 92.2 µM
Description: NIH Chemical Genomics Center [NCGC] NIH Molecular Libraries Screening Centers Network [MLSCN] National Institutes of Environmental Health Sciences [NIEHS] National Toxicology Program [NTP] We have developed a 1536-well cell-based assay for quantitative high throughput screening (qHTS) against a number of cell lines to determine in vitro cytotoxicity of small molecules. […] 8. Detection; Luminescence; Viewlux plate reader […]
Results filed as inconclusive are left out. Active and inactive are the calls of the source. Calls follow the shape of the dose curve; as a rule, active = well fitted cell-killing curve with a large enough effect; inconclusive = small, poorly fitted or top-dose-only effect; inactive = flat fitted curve, though single readings scatter.
Please reply with one of these outcomes: Y = active, N = inactive

Data request: For "O=S(=O)(O)O" , what call appears in the results of this test?
Data returned: N

Data request: Per the records of this test, what outcome belongs to "CCCCCCCC/C=C\CCCCCCCC(=O)O" ?
Data returned: N

Data request: Each molecule tested received a call. Report the one for "CC(C)(C)NC(=O)[C@@H]1C[C@@H]2CCCC[C@@H]2CN1C[C@@H](O)[C@H](Cc1ccccc1)NC(=O)[C@H](CC(N)=O)NC(=O)c1ccc2ccccc2n1" .
Data returned: Y

Data request: Per the assay record, what outcome was assigned to "CCCCCCCC(=O)O" ?
Data returned: N

Data request: Give the logged outcome of this assay for the following molecule: "CC1=C2[C@@H]([C@H](C)CC[C@H]2/C=C(\C)C(=O)O)[C@H](O)C1"
Data returned: N

Data request: Hi team, can someone confirm the assay call for "CCOC(C)=O" ?
Data returned: N

====

Assay: Drug repurposing screens with cells derived from glioblastoma tumor samples (AID 1345199); also: % is scaled to controls: 0 for no effect and ±100 for the full control effect; nearly all actives have a fitted effect of over 40% in size
Conditions: GBM patient neurospheres viability, ATP luminescence, 48 h; at 21.2 µM (top of the series); tumour line B
Protocol: CD133+ cells were isolated from GBM patient biopsies and cultured as neurospheres. Neurospheres from four patients were used to screen the NCATS pharmaceutical collection (NPC) library of approved drugs and bioactive compounds. […] The neurospheres were incubated with drugs for 48 hours in 1536-well format, then assayed with an ATP content cell viability assay. […]
Results filed as inconclusive are left out.
QUANTITY MEASURED: activity, negative = cell killing (%)
Reply numerically in %, unit not repeated.

Data request: Entry under review: CC(Oc1ccccc1)C(=O)N[C@@H]1C(=O)N2[C@@H]1SC(C)(C)[C@@H]2C(=O)O (stereo not given in full) . Reported activity, negative = cell killing?
Data returned: -4.78

Data request: Recorded activity, negative = cell killing for "C[C@H](CCC(=O)O)[C@H]1CC[C@H]2[C@@H]3[C@H](O)C[C@@H]4C[C@H](O)CC[C@]4(C)[C@H]3CC[C@]12C" , please?
Data returned: 1.96

Data request: What activity, negative = cell killing value was documented for this compound, "CC1(C)S[C@@H]2[C@H](NC(=O)[C@@H](NC(=O)N3CCNC3=O)c3ccccc3)C(=O)N2[C@H]1C(=O)O" ?
Data returned: -3.93

Data request: Look up activity, negative = cell killing: "CCC(=O)O[C@@H]1CC(=O)O[C@H](C)C/C=C/C=C/[C@H](O)[C@H](C)C[C@H](CC=O)[C@H](O[C@@H]2O[C@H](C)[C@@H](O[C@H]3C[C@@](C)(O)[C@@H](OC(=O)CC)[C@H](C)O3)[C@H](N(C)C)[C@H]2O)[C@H]1OC"
Data returned: -16.2

Data request: Item under review: "CO[C@H]1C[C@H](O[C@H]2[C@H](C)[C@@H](O[C@@H]3O[C@H](C)C[C@H](N(C)C)[C@H]3OC(C)=O)[C@@H](C)C[C@]3(CO3)C(=O)[C@H](C)[C@@H](OC(C)=O)[C@@H](C)[C@@H](C)OC(=O)[C@@H]2C)O[C@@H](C)[C@@H]1OC(C)=O" . Reported activity, negative = cell killing?
Data returned: -6.68

====

System: DIV14
Test: qHTS profiling for inhibitors of Plasmodium falciparum proliferation (AID 504749); also: nearly all actives have a fitted effect of over 60% in size
Settings: P. falciparum in erythrocytes, SYBR Green DNA, 72 h; series mostly up to 28.7 µM
Results filed as inconclusive are left out. Active and inactive are the calls of the source. The call rests on the fitted dose curve; in most records, active means well fitted inhibition curve with a large enough effect; inconclusive means small, poorly fitted or top-dose-only effect; inactive means flat fitted curve, though single readings scatter.
Entry note: the call must match one of active, inactive

Data request: Test call for this molecule, please: "Cc1c(C)c2c(c(C)c1O)CC[C@@](C)(CCC[C@H](C)CCC[C@H](C)CCCC(C)C)O2"
Data returned: inactive

Data request: Status in this test for "CCCCCCCC/C=C\CCCCCCCC(=O)O" ?
Data returned: inactive

Data request: I'd appreciate the recorded outcome for COC(=O)C1=C(C#N)NC(C)=C(C(=O)OC(C)C)C1c1cccc([N+](=O)[O-])c1 (stereo unspecified) from this test.
Data returned: active

Data request: Hi, sorry to bother you, what did the test record for "CC(C)=O" ?
Data returned: inactive

Data request: Could you please tell me the result logged for "CN(C)CCCN1c2ccccc2C(C)(C)c2ccccc21" in this assay?
Data returned: active

Data request: What call does the record list for NC(=O)c1ncn(C2OC(CO)C(O)C2O)n1 (stereo unspecified) ?
Data returned: inactive

Data request: For "CCCC(=O)O[C@]1(C(=O)CCl)[C@H](C)C[C@@H]2[C@H]3CCC4=CC(=O)C=C[C@]4(C)[C@@]3(F)C(=O)C[C@@]21C" , what call appears in the results of this test?
Data returned: active

Data request: Assay result, entry CC1(C)C(C=C(Cl)Cl)C1C(=O)OCc1cccc(Oc2ccccc2)c1 (stereo unspecified) — outcome?
Data returned: inactive

Data request: Which result was noted for this molecule in the test: "COCC(=O)Nc1cc(Sc2ccccc2)ccc1N=C(NC(=O)OC)NC(=O)OC"
Data returned: inactive

Data request: State the result this test recorded for "O=C(O)CCC(=O)C(=O)O" .
Data returned: inactive

Data request: Please indicate how the test categorized "O=C1C(=O)c2ncccc2-c2cccnc21" .
Data returned: active
